- assay: Intestinal S9 fraction stability, human
- condition_notes: both, human, s9, CLint, Control Compound; Human intestinal S9 fraction
measured_attribute: microsomal CLint

Incoming: For C[C@]12CC[C@H]3[C@@H](CCC4=CC(=O)CC[C@@]43C)[C@@H]1CC[C@@H]2O [Testosterone, testosterone, reference compound] , what is its reported microsomal CLint?
Outgoing: 50.9 µL/min/mg

----------
Provide the recorded Concentration (μM) of analyte PEA, 60 min for the entries that follow.
- assay: in vitro
- condition_notes: both, human, 60 min, 1 μM
- Protocol: Reaction mixture, minus cofactors, was prepared as described below. Test article was added into the reaction mixture at a final concentration of 1 μM. […] Half-lives were calculated using GraphPad software, fitting to a single-phase exponential decay equation. Reaction mixture, minus cofactors, was prepared as described below. […] Half-lives were calculated using GraphPad software, fitting to a single-phase exponential decay equation. […]
Numeric only. Scale: µM

Incoming: For CCCCCCCCCCCCCCCC(=O)NCCOC(=O)CCC(=O)OCC(COC(=O)CCCCCCC)OC(=O)CCCCCCC (stereo not shown) [Compound I-3, PEA-Succinate-Glycerol-Di-Caprylic] , what is its reported Concentration (μM) of analyte PEA, 60 min?
Outgoing: 0.0096

Incoming: For CCCCCCCCCCCCCCCC(=O)NCCOC(=O)CCC [Compound I-2] , what is its reported Concentration (μM) of analyte PEA, 60 min?
Outgoing: 0.033

Incoming: For CCCCCCCCCCCCCCCC(=O)NCCOC(=O)CCC(=O)OC[C@H]1O[C@@](CO)(O[C@H]2O[C@H](CO)[C@@H](O)[C@H](O)[C@H]2O)[C@@H](O)[C@@H]1O [Compound I-7] , what is its reported Concentration (μM) of analyte PEA, 60 min?
Outgoing: 0.042

Incoming: For CC/C=C\C/C=C\C/C=C\C/C=C\C/C=C\CCCC(=O)OCCNC(=O)CCCCCCCCCCCCCCC [Compound I-5] , what is its reported Concentration (μM) of analyte PEA, 60 min?
Outgoing: 0.018

Incoming: For CCCCCCCCCCCCCCCC(=O)NCCOC(=O)CCC(=O)OCC(O)CO (stereo not shown) [Compound I-9] , what is its reported Concentration (μM) of analyte PEA, 60 min?
Outgoing: 0.028

Incoming: For CCCCC/C=C\C/C=C\CCCCCCCC(=O)OCCNC(=O)CCCCCCCCCCCCCCC [Compound I-6] , what is its reported Concentration (μM) of analyte PEA, 60 min?
Outgoing: 0.016

Incoming: For CCCCCCCCCCCCCCCC(=O)NCCOC(=O)CCC(=O)OCC(COC(=O)CCC)OC(=O)CCC (stereo not shown) [Compound I-11] , what is its reported Concentration (μM) of analyte PEA, 60 min?
Outgoing: 0.033
